- ASSAY SYSTEM: glucan synthase (GS) prepared from Candida albicans MY1055 (Candida albicans)
- Sequence (O13428 1-1897): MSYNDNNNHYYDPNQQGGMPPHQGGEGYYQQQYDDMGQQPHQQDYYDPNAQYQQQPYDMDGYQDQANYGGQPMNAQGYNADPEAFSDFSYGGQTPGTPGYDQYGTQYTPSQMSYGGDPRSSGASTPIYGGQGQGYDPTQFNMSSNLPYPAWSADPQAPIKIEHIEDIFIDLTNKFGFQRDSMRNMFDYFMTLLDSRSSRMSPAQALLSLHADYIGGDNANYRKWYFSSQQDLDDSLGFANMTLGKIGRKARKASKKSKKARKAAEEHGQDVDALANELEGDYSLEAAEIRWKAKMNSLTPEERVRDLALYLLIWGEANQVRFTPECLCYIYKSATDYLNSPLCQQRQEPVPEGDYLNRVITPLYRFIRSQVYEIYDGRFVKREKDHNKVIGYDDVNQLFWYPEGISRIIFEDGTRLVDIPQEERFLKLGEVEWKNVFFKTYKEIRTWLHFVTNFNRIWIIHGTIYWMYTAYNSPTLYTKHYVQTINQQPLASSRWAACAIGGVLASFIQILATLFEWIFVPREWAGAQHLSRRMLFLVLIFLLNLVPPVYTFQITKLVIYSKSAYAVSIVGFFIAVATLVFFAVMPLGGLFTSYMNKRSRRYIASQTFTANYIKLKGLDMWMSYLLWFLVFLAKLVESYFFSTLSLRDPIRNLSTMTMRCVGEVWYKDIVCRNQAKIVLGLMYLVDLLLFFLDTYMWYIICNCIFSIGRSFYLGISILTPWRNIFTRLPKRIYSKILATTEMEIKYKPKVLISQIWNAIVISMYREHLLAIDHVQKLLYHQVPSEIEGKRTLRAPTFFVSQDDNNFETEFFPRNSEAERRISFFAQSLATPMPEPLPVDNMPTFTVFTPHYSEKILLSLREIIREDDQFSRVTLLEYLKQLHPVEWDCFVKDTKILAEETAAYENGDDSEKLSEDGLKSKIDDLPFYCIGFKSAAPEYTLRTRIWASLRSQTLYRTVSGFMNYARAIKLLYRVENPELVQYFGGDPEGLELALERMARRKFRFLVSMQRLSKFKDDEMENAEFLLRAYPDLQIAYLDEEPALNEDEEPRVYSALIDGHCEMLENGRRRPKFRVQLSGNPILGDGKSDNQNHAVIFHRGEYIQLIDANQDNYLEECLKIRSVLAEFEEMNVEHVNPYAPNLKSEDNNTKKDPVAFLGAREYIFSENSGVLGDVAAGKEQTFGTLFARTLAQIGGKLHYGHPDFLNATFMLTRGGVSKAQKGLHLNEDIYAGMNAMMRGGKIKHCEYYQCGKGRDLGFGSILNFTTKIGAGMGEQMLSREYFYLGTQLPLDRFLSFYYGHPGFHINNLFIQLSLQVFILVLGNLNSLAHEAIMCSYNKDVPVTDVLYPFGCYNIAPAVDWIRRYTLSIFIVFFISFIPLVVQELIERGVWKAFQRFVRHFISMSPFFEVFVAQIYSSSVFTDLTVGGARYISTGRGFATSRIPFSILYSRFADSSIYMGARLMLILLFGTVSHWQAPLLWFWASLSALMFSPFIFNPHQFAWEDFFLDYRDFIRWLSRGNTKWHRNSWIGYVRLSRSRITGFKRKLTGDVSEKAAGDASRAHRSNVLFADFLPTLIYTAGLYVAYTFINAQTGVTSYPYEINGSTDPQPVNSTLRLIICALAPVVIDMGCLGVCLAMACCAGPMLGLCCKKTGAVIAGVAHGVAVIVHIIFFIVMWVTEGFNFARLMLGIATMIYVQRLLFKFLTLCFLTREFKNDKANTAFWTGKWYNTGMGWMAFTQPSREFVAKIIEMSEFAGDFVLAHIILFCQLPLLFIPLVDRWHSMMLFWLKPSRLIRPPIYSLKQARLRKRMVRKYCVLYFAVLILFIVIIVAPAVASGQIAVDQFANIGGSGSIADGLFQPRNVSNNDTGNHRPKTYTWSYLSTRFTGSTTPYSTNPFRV
- ASSAY INFO: Glucan synthase inhibition (polymerization assay, 96-well)
- Type: biochemical
- EXPERIMENTAL CONDITIONS: GS from C. albicans MY1055; 60 min incubation at 22° C.; read-out: Candida Albicans GS IC50 (converted)
- Method: The in vitro evaluation of glucan synthase inhibitory activity of compounds was measured in a polymerization assay in 96-well format. […] 40 μL/well scintillation fluid (Packard ULTIMA GOLD TM-XR) was added and the sealed plates counted in a WALLAC BETA counter in top-counting mode at an efficiency of approximately 40%. […]
Sorting guide: entries reporting IC50 beneath 6 nM go in the 1.0 pile, the rest go in the 0.0 pile.

Worked set:
molecule=CCCc1ncnn1[C@@H]1C[C@@]23COC[C@](C)([C@@H]2CC[C@H]2C3=CC[C@@]3(C)[C@H](C(=O)O)[C@@](C)([C@H](C)C(C)C)CC[C@]23C)[C@H]1OC[C@](C)(N)C(C)C class=1.0
molecule=CCC(N)(CC)CO[C@H]1[C@H](n2ncnc2-c2ccncc2)C[C@@]23COC[C@]1(C)[C@@H]2CC[C@H]1C3=CC[C@@]2(C)[C@H](C(=O)O)[C@@](C)([C@H](C)C(C)C)CC[C@]12C class=1.0
molecule=CC(C)[C@@H](C)[C@@]1(C)CC[C@]2(C)[C@H]3CC[C@@H]4[C@@]5(COC[C@@]4(C)[C@@H](OC[C@](C)(N)C(C)(C)C)[C@H](n4ncnc4Br)C5)C3=CC[C@@]2(C)[C@@H]1C(=O)O class=1.0
molecule=CC(C)[C@@H](C)[C@@]1(C)CC[C@]2(C)[C@H]3CC[C@@H]4[C@@]5(COC[C@@]4(C)[C@@H](OC[C@](C)(N)C(C)C)[C@H](n4ncnc4C(=O)NCCN(C)C)C5)C3=CC[C@@]2(C)[C@@H]1C(=O)O class=0.0
molecule="COC(=O)c1ncn([C@@H]2C[C@@]34COC[C@](C)([C@@H]3CC[C@H]3C4=CC[C@@]4(C)[C@H](C(=O)O)[C@@](C)([C@H](C)C(C)C)CC[C@]34C)[C@H]2OC[C@](C)(N)C(C)C)n1 (single isomer, unassigned)" class=1.0
molecule=CC(C)[C@@H](C)[C@@]1(C)CC[C@]2(C)[C@H]3CC[C@@H]4[C@@]5(COC[C@@]4(C)[C@@H](OC[C@](C)(N)C(C)C)[C@H](n4ncnc4-c4ccc(O)nc4)C5)C3=CC[C@@]2(C)[C@@H]1C(=O)O class=1.0

Dear colleague, could you confirm whether IC50 of CC(C)NC(=O)c1ncn([C@@H]2C[C@@]34COC[C@](C)([C@@H]3CC[C@H]3C4=CC[C@@]4(C)[C@H](C(=O)O)[C@@](C)([C@H](C)C(C)C)CC[C@]34C)[C@H]2OC[C@](C)(N)C(C)C)n1 (single isomer, unassigned) [Example 37B] falls below 6 nM? Thanks.
0.0

Dear colleague, could you confirm whether IC50 of CC(C)[C@@H](C)[C@@]1(C)CC[C@]2(C)[C@H]3CC[C@@H]4[C@@]5(COC[C@@]4(C)[C@@H](OC[C@](C)(N)C(C)C)[C@H](n4nc(N)nc4C4CC4)C5)C3=CC[C@@]2(C)[C@@H]1C(=O)O (single isomer, unassigned) [Example 32A] falls below 6 nM? Thanks.
1.0
